system-tested: human Fc (human)
test-description: ELISA, negative control
Quick reference: optical density of the listed items.

binder	quantity-unit	optical density
368_C09 (antibody, V domains shown) VH: EVQLLESGGGLVQPGGSLRLSCAASGFTFSSYSMHWVRQAPGKGLEWVSNINYNGGYTGYADSVKGRFTISRDNSKNTLYLQMNSLRAEDTAVYYCARAANWHDTHLDYWGQGTLVTVSS VL: DIQMTQSPSSLSASVGDRVTITCRASQSILTYVNWYQQKPGKAPKLLIYAATSLASGVPSRFSGSGSGTDFTLTISSLQPEDFATYYCQQSYDLPLTFGGGTKVEIK	OD	0.341
365_F02 (antibody, V domains shown) VH: EVQLLESGGGLVQPGGSLRLSCAASGFTFSSYSMNWVRQAPGKGLEWVSGINYNGGYKGYADSVKGRFTISRDNSKNTLYLQMNSLRAEDTAVYYCARGANWHDTHLDYWGQGTLVTVSS VL: DIQMTQSPSSLSASVGDRVTITCRASQSILTYVNWYQQKPGKAPKLLIYAATSRHSGVPSRFSGSGSGTDFTLTISSLQPEDFATYYCQQSYDTPLTFGGGTKVEIK	OD	0.326
370_H07 (antibody, V domains shown) VH: EVQLLESGGGLVQPGGSLRLSCAASGFTFSSYSMNWVRQAPGKGLEWVAGINYNGGYKSYADSVKGRFTISRDNSKNTLYLQMNSLRAEDTAVYYCARGANWHDTALDYWGQGTLVTVSS VL: DIQMTQSPSSLSASVGDRVTITCRASQSILSYLNWYQQKPGKAPKLLIYAATSLASGVPSRFSGSGSGTDFTLTISSLQPEDFATYYCQQSDSSPLTFGGGTKVEIK	OD	0.403
372_B02 (antibody, V domains shown) VH: EVQLLESGGGLVQPGGSLRLSCAASGFTFSSYSMNWVRQAPGKGLEWVSGINYNSGYTSYADSVKGRFTISRDNSKNTLYLQMNSLRAEDTAVYYCARGANWHDTALDYWGQGTLVTVSS VL: DIQMTQSPSSLSASVGDRVTITCRASQSILSYVNWYQQKPGKAPKLLIYAVTSLASGVPSRFSGSGSGTDFTLTISSLQPEDFATYYCQQSYETPLTFGGGTKVEIK	OD	0.371
375_G12 (antibody, V domains shown) VH: EVQLLESGGGLVQPGGSLRLSCAASGFTFDSYGMHWVRQAPGKGLEWVSSINYNGGYTSYADSVKGRFTISRDNSKNTLYLQMNSLRAEDTAVYYCARSATWHDTHLDYWGQGTLVTVSS VL: DIQMTQSPSSLSASVGDRVTITCRASQSIVSYVNWYQQKPGKAPKLLIYAATSRHSGVPSRFSGSGSGTDFTLTISSLQPEDFATYYCQQSYDTPLTFGGGTKVEIK	OD	0.199
